# System: UACC-62 melanoma
# Test protocol: NCI tumour cell line growth inhibition, 48 h
Answer FALSE if TGI is under 30 µM, and TRUE if it is 30 µM or more.

Known results for molecules:
Molecule | Group
CCNCCS(=O)(=O)NC[C@@]1(c2ccccc2)SC(NC(=O)C(C)(C)C)=NN1C(=O)C(C)(C)C | TRUE
Cc1cc(NS(=O)(=O)c2ccc(NC(=O)c3cccc4c(Nc5ccc(S(=O)(=O)Nc6cc(C)on6)cc5)c5ccc(Cl)cc5nc34)cc2)no1 | TRUE
COC1(OC)CCC2(C)OC(c3ccccc3)C1O2 (configuration not stated) | TRUE
O=C(NNC1=NS(=O)(=O)c2ccccc2N1c1ccccc1)c1cnccn1 | TRUE
Nc1nc2c(ncn2C2OC(CO)C(O)C2O)c(=O)o1 (configuration not stated) | TRUE
CN1CCN(CCCCCOc2cc(O)c3c(=O)cc(-c4ccccc4)oc3c2)CC1 | FALSE
COc1ccc(NCc2cccc3c(=O)c4ccc(Cl)cc4oc23)cc1 | TRUE
Cc1c(Br)c(Br)c2c3c1nc(N1CCNCC1)n3CCC2 | FALSE
CC(C)=NC(C(=O)O)C(C)(C)S (configuration not stated) | TRUE
O=C(Cc1csc2[n+]1C(=O)/C(=C/c1ccc(Cl)cc1)S2)Nc1ccccc1 | TRUE

Hello, I need to know if O=C(N[C@H](CO)[C@H](O)c1ccc([N+](=O)[O-])cc1)C(Cl)Cl has measured TGI not below 30 µM. Thanks!
TRUE

Dear colleague, could you confirm whether C#CCNCC(=O)O has TGI at or above 30 µM?
TRUE

Hi, just wondering whether O=S(=O)(Cc1ccccc1)c1nnc(S(=O)(=O)c2ccc(Cl)cc2)s1 shows TGI of 30 µM or higher.
TRUE

State whether the measured TGI reaches 30 µM, counting equality as reaching it, for c1ccc(C2=Nc3ccccc3N3CNN=C23)cc1
TRUE

Exam item: decide whether the reported TGI for NN/C(=N\S(=O)(=O)c1cc(S(=O)(=O)c2ccccc2)cs1)Nc1ccc(Cl)cc1 is at least 30 µM.
TRUE

Textbook exercise: given the entry Cc1cc(C)c([O-])c(-[n+]2c(-c3ccccc3)cc(-c3ccccc3)cc2-c2ccccc2)c1 , state whether its TGI is greater than or equal to 30 µM.
FALSE

# check: TGI of C=CCc1cc(OC)c(O)c(C(=O)/C=C/c2ccc(OC)c(OC)c2)c1 is greater than or equal to 30 µM
TRUE

Please check the record Cc1[nH]c2ccccc2c1/C=C/c1c(C)[nH]c2ccccc12 and state if its TGI is at or above 30 µM.
TRUE

// inclusive: TGI at least 30 µM? input: CC(=O)NC(CCc1ccc(Cl)c(Cl)c1)c1cccc(O)c(=O)c1 (configuration not stated)
FALSE

----------
# System: SK-MEL-5 melanoma
# Test protocol: NCI tumour cell line growth inhibition, 48 h; in the data active = GI50 below about 0.43 µM; inactive = the rest
Select the matching outcome among TRUE = active, FALSE = inactive

Here are 5 molecules together with their reported answers.
Molecule | Group
COc1ccc(-c2cc(-c3ccc(Cl)cc3)nc(SCCCC(=O)NO)n2)cc1OC | FALSE
Cc1ccc(/C=C(/C#N)n2nnc3cccc(F)c32)cc1 | TRUE
CN1CCC(=C(c2ccc(Cl)cc2)c2ccccn2)CC1 | FALSE
COC(=O)COc1ccccc1/C=C1/N=C(c2ccccc2)N(c2c(C)n(C)n(-c3ccccc3)c2=O)C1=O | FALSE
COc1cc(C2C=C(C)N=C3SC=C(C)N32)cc(OC)c1OC (stereo unspecified) | FALSE

Here is another molecule to look at.
Fill in: this test's call for N=C1C(c2nc3ccccc3c(=O)[nH]2)=C(O)CN1c1cccc(Cl)c1 is ___
FALSE

Data provenance is PubChem BioAssay (NCI).
